This collection of values is drawn from ChEMBL document CHEMBL4152290.

Here, each record is paired with measured MIC data.
Tested on: Mycobacterium tuberculosis
measurement.description: Antitubercular activity against Mycobacterium tuberculosis H37Rv ATCC 27294 after 7 days by resazurin dye based assay
Format: functional
experimental.conditions: H37Rv ATCC 27294, 168 h

C[C@H]1CC[C@H](NC(=O)CSc2nc3ccccc3[nH]2)CC1    16.5 µM
O=C(CSc1nc(O)c2ccccc2n1)N1CCCCC1    > 33 µM
C[C@H]1CC[C@H](NC(=O)CSc2nc3ccccc3c(=O)[nH]2)CC1    0.24 µM
O=C(CSc1nc2ccccc2c(=O)[nH]1)Nc1ccc2ccccc2c1    > 27.7 µM
Cc1ccc(NC(=O)CSc2nc3ccccc3c(=O)[nH]2)cc1    > 30.7 µM

Q: Need MIC of `O=C(CSc1nc2ccccc2c(=O)[nH]1)Nc1ccc(I)cc1` , thanks.
A: > 22.9 µM

Q: Bench note: what MIC did `C[C@H](NC(=O)CSc1nc2ccccc2[nH]1)C1CCCCC1` show?
A: > 31.5 µM

Q: Please give the measured MIC for this molecule: `O=C(CSc1nc2ccccc2c(=O)[nH]1)NC1CCCC1`
A: 2.07 µM

Q: Reported MIC, molecule CC1CCC(NC(=O)CSc2nc3ccccc3c(=O)[nH]2)CC1 (stereo not drawn) : ____
A: 0.24 µM

Q: Which MIC reading was recorded for the molecule `O=C(CSc1nc2ccccc2c(=O)[nH]1)NC1CCCCCC1` ?
A: 0.48 µM

----------
measurement.description: Selectivity index, ratio of cytotoxic concentration for human HaCaT cells by MTT assay to MIC for Mycobacterium tuberculosis H37Rv ATCC 27294
Format: toxicity
experimental.conditions: read-out: Selectivity Index
readout.kind: selectivity ratio

CC1CCCCC1NC(=O)CSc1nc2ccccc2c(=O)[nH]1 (configuration not stated)    ≤ 32
CC1CCCC(NC(=O)CSc2nc3ccccc3c(=O)[nH]2)C1 (configuration not stated)    ≤ 32
O=C(CSc1nc2ccccc2c(=O)[nH]1)NC1CCCCCC1    ≤ 32

Q: GET /values?readout=selectivity ratio&item= `O=C(CSc1nc2ccccc2c(=O)[nH]1)NCC1CCCCC1`
A: ≤ 32

Q: For the molecule `O=C(CSc1nc2ccccc2c(=O)[nH]1)NC1CCCCC1` , what selectivity ratio is on record?
A: ≤ 32

Q: Need selectivity ratio of `C[C@H]1CC[C@H](NC(=O)CSc2nc3ccccc3c(=O)[nH]2)CC1` , thanks.
A: ≤ 32

Q: Param item = CC1CCC(NC(=O)CSc2nc3ccccc3c(=O)[nH]2)CC1 (configuration not stated) ; retrieve measured selectivity ratio.
A: ≤ 32

----------
System: Mycobacterium tuberculosis
measurement.description: Antitubercular activity against Mycobacterium tuberculosis H37Rv ATCC 27294 after 7 days by resazurin dye based assay
Format: functional
experimental.conditions: H37Rv ATCC 27294, 168 h
Parameter MIC: see the listing below.
Number only, in µM; omit the unit.

O=C(CSc1nc2ccccc2c(=O)[nH]1)N[C@@H]1CCc2ccccc2C1    17.1

# next compound below
Q: Could you share which MIC value was measured for `O=C(CSc1nc2ccccc2c(=O)[nH]1)NC1CCCCC1` ?
A: 0.97

----------
measurement.description: Stability of the compound in PBS containing 10% DMSO at 37 degC measured after 24 hrs by HPLC analysis
Assay type: physicochemical
experimental.conditions: PBS containing 10% DMSO; read-out: Stability
Labelling: remaining at 24 h reported below 70% becomes Yes; at or above becomes No.

Q: Identify whether the molecule CC1CCCC(NC(=O)CSc2nc3ccccc3c(=O)[nH]2)C1 (stereo unspecified) records remaining at 24 h below 70%.
A: No

Q: # strict comparison: is reported remaining at 24 h < 70%? input = CC1CCC(NC(=O)CSc2nc3ccccc3c(=O)[nH]2)CC1 (stereo unspecified)
A: Yes

Q: # check: remaining at 24 h < 70% for CC1CCCCC1NC(=O)CSc1nc2ccccc2c(=O)[nH]1 (stereo unspecified)
A: No

----------
measurement.description: Stability of the compound in PBS containing 10% DMSO at 37 degC measured after 6 hrs by HPLC analysis
Format: physicochemical
experimental.conditions: read-out: Stability
// returns NOT MET unless remaining at 6 h is strictly below 90%, in which case MET

CC1CCC(NC(=O)CSc2nc3ccccc3c(=O)[nH]2)CC1 (configuration not stated)    MET
O=C(CSc1nc2ccccc2c(=O)[nH]1)NC1CCCCC1    NOT MET
O=C(CSc1nc2ccccc2c(=O)[nH]1)NC1CCCCCC1    MET
O=C(CSc1nc2ccccc2c(=O)[nH]1)NCC1CCCCC1    NOT MET
C[C@H]1CC[C@H](NC(=O)CSc2nc3ccccc3c(=O)[nH]2)CC1    MET

Q: Please indicate whether the reported remaining at 6 h of CC1CCCC(NC(=O)CSc2nc3ccccc3c(=O)[nH]2)C1 (configuration not stated) is strictly below 90%.
A: NOT MET

Q: Please let me know if CC1CCCCC1NC(=O)CSc1nc2ccccc2c(=O)[nH]1 (configuration not stated) shows remaining at 6 h below 90%.
A: MET

----------
Species: Danio rerio
measurement.description: Cardiotoxicity in Zebrafish AB embryos assessed as heart beat rate at 3 uM measured at 2 days post fertilization by stereomicroscopic method (reference value: 128.7 to 146.3 bpm)
Format: organism-based
experimental.conditions: in vivo, 48 h
readout.kind: Activity (bpm)
State just the number; it will be interpreted in bpm.

Some entries whose results are on file:
O=C(CSc1nc2ccccc2c(=O)[nH]1)NC1CCCCCC1    139.6
C[C@H]1CC[C@H](NC(=O)CSc2nc3ccccc3c(=O)[nH]2)CC1    135.5
O=C(CSc1nc2ccccc2c(=O)[nH]1)NC1CCCCC1    149.5
CC1CCCCC1NC(=O)CSc1nc2ccccc2c(=O)[nH]1 (configuration not stated)    156.3

Q: Recorded Activity of `O=C(CSc1nc2ccccc2c(=O)[nH]1)NCC1CCCCC1` , please.
A: 140.7

Q: Any idea what its Activity is? The compound is CC1CCCC(NC(=O)CSc2nc3ccccc3c(=O)[nH]2)C1 (configuration not stated)
A: 151.2

Q: Consider the compound CC1CCC(NC(=O)CSc2nc3ccccc3c(=O)[nH]2)CC1 (configuration not stated) and give its measured Activity.
A: 122.3

----------
As shown below, each of these molecules has a reported viability at 72 h, 10 ug/ml value.
measurement.description: Cytotoxicity against human HaCaT cells assessed as cell viability at 10 ug/ml after 72 hrs by MTT assay (reference value: 100%)
Assay type: cell-based
experimental.conditions: read-out: Activity
Form entry: value (%) — number only.

Q: Quick one: viability at 72 h, 10 ug/ml of CC1CCCC(NC(=O)CSc2nc3ccccc3c(=O)[nH]2)C1 (configuration not stated) ?
A: 94

Q: Which measured viability at 72 h, 10 ug/ml value corresponds to CC1CCC(NC(=O)CSc2nc3ccccc3c(=O)[nH]2)CC1 (configuration not stated) ?
A: 95

----------
measurement.description: Stability of the compound in PBS containing 10% DMSO at 25 degC measured immediately by HPLC analysis
Assay type: physicochemical
experimental.conditions: read-out: Stability
Entries annotated with measured remaining at 0 h
Express it in %; write the number only.

Reference set, count: 3
CC1CCCCC1NC(=O)CSc1nc2ccccc2c(=O)[nH]1 (configuration not stated)    100
C[C@H]1CC[C@H](NC(=O)CSc2nc3ccccc3c(=O)[nH]2)CC1    100
O=C(CSc1nc2ccccc2c(=O)[nH]1)NC1CCCCC1    100

Q: // lookup remaining at 0 h for CC1CCCC(NC(=O)CSc2nc3ccccc3c(=O)[nH]2)C1 (configuration not stated)
A: 100

Q: # get_value(readout='remaining at 0 h', item= CC1CCC(NC(=O)CSc2nc3ccccc3c(=O)[nH]2)CC1 (configuration not stated) )
A: 100

Q: Name the reported remaining at 0 h value associated with the compound `O=C(CSc1nc2ccccc2c(=O)[nH]1)NC1CCCCCC1`
A: 100

Q: Name the reported remaining at 0 h value associated with the compound `O=C(CSc1nc2ccccc2c(=O)[nH]1)NCC1CCCCC1`
A: 100

----------
Here the recorded remaining at 9 h is given for each entry.
measurement.description: Stability of the compound in PBS containing 10% DMSO at 37 degC measured after 9 hrs by HPLC analysis
Type: physicochemical
experimental.conditions: PBS containing 10% DMSO; read-out: Stability
The reply should be a number in %, with the unit left off.

// known answers, use as guide
CC1CCCCC1NC(=O)CSc1nc2ccccc2c(=O)[nH]1 (stereo unspecified)    71
C[C@H]1CC[C@H](NC(=O)CSc2nc3ccccc3c(=O)[nH]2)CC1    77
CC1CCC(NC(=O)CSc2nc3ccccc3c(=O)[nH]2)CC1 (stereo unspecified)    69

Q: Look at this molecule and give its reported remaining at 9 h. `O=C(CSc1nc2ccccc2c(=O)[nH]1)NC1CCCCCC1`
A: 68

Q: Which remaining at 9 h is listed for CC1CCCC(NC(=O)CSc2nc3ccccc3c(=O)[nH]2)C1 (stereo unspecified) ?
A: 97

Q: // lookup remaining at 9 h for `O=C(CSc1nc2ccccc2c(=O)[nH]1)NCC1CCCCC1`
A: 112
